The reported numbers originate from patent US20230382924A1.

molecular target: CFTR (Homo sapiens); assay: Membrane Potential Dye, Enteroid Assay A; format: cell-based; conditions: Enteroid Assay A
Sequence (P13569 with tags, fused parts or gaps DEL508-508): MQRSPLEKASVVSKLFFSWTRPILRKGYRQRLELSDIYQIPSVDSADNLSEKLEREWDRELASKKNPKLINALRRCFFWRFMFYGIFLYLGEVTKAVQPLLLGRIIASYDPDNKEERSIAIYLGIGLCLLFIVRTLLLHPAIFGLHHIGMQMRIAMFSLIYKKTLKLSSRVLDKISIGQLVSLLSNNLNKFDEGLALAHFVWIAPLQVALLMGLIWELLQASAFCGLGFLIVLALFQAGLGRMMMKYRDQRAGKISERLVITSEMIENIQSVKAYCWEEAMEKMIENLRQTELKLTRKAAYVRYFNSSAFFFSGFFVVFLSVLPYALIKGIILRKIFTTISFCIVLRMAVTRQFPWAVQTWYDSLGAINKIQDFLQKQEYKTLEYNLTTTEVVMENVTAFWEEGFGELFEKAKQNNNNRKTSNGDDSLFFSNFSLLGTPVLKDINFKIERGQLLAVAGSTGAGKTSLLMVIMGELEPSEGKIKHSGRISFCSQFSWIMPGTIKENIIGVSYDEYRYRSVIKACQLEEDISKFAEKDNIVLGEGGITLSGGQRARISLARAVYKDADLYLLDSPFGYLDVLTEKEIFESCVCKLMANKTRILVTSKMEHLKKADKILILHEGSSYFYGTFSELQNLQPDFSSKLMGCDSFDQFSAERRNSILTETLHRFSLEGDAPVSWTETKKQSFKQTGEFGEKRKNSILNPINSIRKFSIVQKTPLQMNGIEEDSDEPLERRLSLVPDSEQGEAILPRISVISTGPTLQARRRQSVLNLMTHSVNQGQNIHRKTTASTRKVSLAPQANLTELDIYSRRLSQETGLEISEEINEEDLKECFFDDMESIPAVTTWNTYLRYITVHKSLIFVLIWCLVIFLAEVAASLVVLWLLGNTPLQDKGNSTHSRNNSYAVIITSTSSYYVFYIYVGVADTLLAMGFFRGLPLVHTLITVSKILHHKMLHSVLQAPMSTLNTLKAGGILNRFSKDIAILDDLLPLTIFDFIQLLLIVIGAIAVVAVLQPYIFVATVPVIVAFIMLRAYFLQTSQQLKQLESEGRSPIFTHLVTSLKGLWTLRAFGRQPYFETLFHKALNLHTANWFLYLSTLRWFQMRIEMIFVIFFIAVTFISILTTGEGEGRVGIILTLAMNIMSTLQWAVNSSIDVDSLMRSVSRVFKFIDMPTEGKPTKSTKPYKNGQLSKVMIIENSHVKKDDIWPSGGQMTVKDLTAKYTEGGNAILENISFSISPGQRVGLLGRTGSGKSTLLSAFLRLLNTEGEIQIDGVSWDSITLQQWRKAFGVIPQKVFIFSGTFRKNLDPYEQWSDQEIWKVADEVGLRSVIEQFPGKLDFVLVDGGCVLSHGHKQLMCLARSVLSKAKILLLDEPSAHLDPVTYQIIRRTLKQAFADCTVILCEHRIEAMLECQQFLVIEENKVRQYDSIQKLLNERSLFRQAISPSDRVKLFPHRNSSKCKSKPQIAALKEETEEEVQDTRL
experimental endpoint: Ent. A Max Activity

Cc1cccc(C)c1-c1cc2nc(n1)NS(=O)(=O)c1cccc(c1)C(=O)NCC1(CCN(C(=O)CO[C@@H]3C[C@H](C)CC[C@H]3C(C)C)CC1)CO2 : ++ (++ is 30-60%)
CCCC(NC(=O)OC(C)(C)C)C(=O)N1CCC2(CC1)CNC(=O)c1cccc(c1)S(=O)(=O)Nc1nc(cc(-c3c(C)cccc3C)n1)OC2 (stereo not drawn) : ++ (++ is 30-60%)
Cc1cccc(C)c1-c1cc2nc(n1)NS(=O)(=O)c1cccc(c1)C(=O)NCC1(CCN(CCC(C)CC(C)(C)C)CC1)CO2 (stereo not drawn) : +++ (+++ is >600%)
Cc1cccc(C)c1-c1cc2nc(n1)NS(=O)(=O)c1cccc(c1)C(=O)N[C@H](c1ccccc1)CO2 : +++ (+++ is >600%)
Cc1cccc(C)c1-c1cc2nc(n1)NS(=O)(=O)c1cccc(c1)C(=O)NC1CCCC(C1)O2 (stereo not drawn) : ++ (++ is 30-60%)

For this compound ( Cc1cccc(C)c1-c1cc2nc(n1)NS(=O)(=O)c1cccc(c1)C(=O)N[C@H](CC1CCOCC1)CO2 (stereo in doubt) ), measured Ent. A Max Activity is +++ (+++ is >600%)
